Experimental Protocol: Cytotoxicity against multidrug resistant human KBV1 cells overexpressing MDR1 by MTT method
Assay type: functional, cell-based
Run Parameters: KB-V1
Quantity Measured: IC50 (nM)

chem_smiles=CN(C)CCNc1ccc2c(=O)n(CCN(C)C)c3c4cc5c(cc4ncc3c2c1)OCO5 endpoint_value=550
chem_smiles=CN(C)CCn1c(=O)c2cc(N)ccc2c2cnc3cc4c(cc3c21)OCO4 endpoint_value=280
chem_smiles=CCCCn1c(=O)c2ccc([N+](=O)[O-])cc2c2cnc3cc4c(cc3c21)OCO4 endpoint_value=850
chem_smiles=CN(C)CCn1c(=O)c2cc(NC(=O)CN(C)C)ccc2c2cnc3cc4c(cc3c21)OCO4 endpoint_value=600
chem_smiles=CN(C)CCn1c(=O)c2ccc([N+](=O)[O-])cc2c2cnc3cc4c(cc3c21)OCO4 endpoint_value=4

----------
Test system: P388
Experimental Protocol: Cytotoxicity against mouse P388 cells by MTT method
Assay type: functional, cell-based
Recorded measurements of IC50, one per entry
Quantity Measured: IC50 (nM)

chem_smiles=CN(C)CCn1c(=O)c2cc(N)ccc2c2cnc3cc4c(cc3c21)OCO4 endpoint_value=40
chem_smiles=CCCCn1c(=O)c2cc(NCCN(C)C)ccc2c2cnc3cc4c(cc3c21)OCO4 endpoint_value=780
chem_smiles=CN(C)CCn1c(=O)c2ccc([N+](=O)[O-])cc2c2cnc3cc4c(cc3c21)OCO4 endpoint_value=5
chem_smiles=CC[C@@]1(O)C(=O)OCc2c1cc1n(c2=O)Cc2cc3ccccc3nc2-1 endpoint_value=14
chem_smiles=CN(C)CCn1c(=O)c2cc([N+](=O)[O-])ccc2c2cnc3cc4c(cc3c21)OCO4 endpoint_value=9
chem_smiles=CN(C)CCNc1ccc2c(=O)n(CCN(C)C)c3c4cc5c(cc4ncc3c2c1)OCO5 endpoint_value=60
chem_smiles=CCCCn1c(=O)c2ccc(N)cc2c2cnc3cc4c(cc3c21)OCO4 endpoint_value=6000
chem_smiles=CCCCn1c(=O)c2ccc([N+](=O)[O-])cc2c2cnc3cc4c(cc3c21)OCO4 endpoint_value=700
chem_smiles=CN(C)CCNc1ccc2c(c1)c(=O)n(CCN(C)C)c1c3cc4c(cc3ncc21)OCO4 endpoint_value=40
chem_smiles=CCCCn1c(=O)c2ccc(NC(=O)CN(C)C)cc2c2cnc3cc4c(cc3c21)OCO4 endpoint_value=600
chem_smiles=CCCCn1c(=O)c2cc(N)ccc2c2cnc3cc4c(cc3c21)OCO4 endpoint_value=280
chem_smiles=CN(C)CCn1c(=O)c2ccc(N)cc2c2cnc3cc4c(cc3c21)OCO4 endpoint_value=28
chem_smiles=CN(C)CCn1c(=O)c2ccc(NC(=O)CN(C)C)cc2c2cnc3cc4c(cc3c21)OCO4 endpoint_value=35
chem_smiles=CCCCn1c(=O)c2cc(NC(=O)CN(C)C)ccc2c2cnc3cc4c(cc3c21)OCO4 endpoint_value=250
chem_smiles=CCCCn1c(=O)c2cc([N+](=O)[O-])ccc2c2cnc3cc4c(cc3c21)OCO4 endpoint_value=150
chem_smiles=CN(C)CCn1c(=O)c2cc(NC(=O)CN(C)C)ccc2c2cnc3cc4c(cc3c21)OCO4 endpoint_value=100
chem_smiles=CC[C@@]1(O)C(=O)OCc2c1cc1n(c2=O)Cc2cc3c(CN(C)C)c(O)ccc3nc2-1 endpoint_value=45
chem_smiles=CCCCn1c(=O)c2ccc(NCCN(C)C)cc2c2cnc3cc4c(cc3c21)OCO4 endpoint_value=1800
